Ref: paper PMC5365648

assay protocol: Rat pharmacokinetics, i.v. bolus
Type: in vivo, Sprague-Dawley rats
test parameters: rat, in vivo, iv; female Sprague-Dawley rats, single 45 mg/kg slow i.v. bolus, plasma, LC-MS/MS, noncompartmental, n = 3 to 5/dose; read-out: Tmax
Starred links: 1 amine or outer side, 2 acyl side, 3 side chain; linkers in the order of their positions; H or OH if unused. Positions of bridges follow the written chain, without caps; N, C: chain ends. Non-standard residues stand in square brackets, D forms with d. Residues, ends and D or L forms follow the SMILES beside them. *: point of attachment. Orn(4R-OH,5R-OCH2CH2NMe3+) = C[N+](C)(C)CCO[C@@H](N[*:3])[C@H](O)C[C@H](N[*:1])C(=O)[*:2]; pTerphenylCO(4''-OnC5H11) = CCCCCOc1ccc(-c2ccc(-c3ccc(C(=O)*)cc3)cc2)cc1; hTyr(3S-OH,4S-OH) = N[C@H](C(=O)O)[C@H](O)[C@@H](O)c1ccc(O)cc1; Pro(3S-OH,4S-Me) = C[C@H]1CN[C@H](C(=O)O)[C@H]1O; Hyp = O=C(O)[C@@H]1C[C@@H](O)CN1
measured endpoint: Tmax (min)
Output spec: scalar in min, unitless text.

## Task What value of measured Tmax is listed for CCCCCOc1ccc(-c2ccc(-c3ccc(C(=O)N[C@H]4C[C@@H](O)[C@@H](OCC[N+](C)(C)C)NC(=O)[C@@H]5[C@@H](O)[C@@H](C)CN5C(=O)[C@H]([C@@H](C)O)NC(=O)[C@H]([C@H](O)[C@@H](O)c5ccc(O)cc5)NC(=O)[C@@H]5C[C@@H](O)CN5C(=O)[C@H]([C@@H](C)O)NC4=O)cc3)cc2)cc1 [CD101] ({pTerphenylCO(4''-OnC5H11)}-[Orn(4R-OH,5R-OCH2CH2NMe3+)]T[Hyp][hTyr(3S-OH,4S-OH)]T[Pro(3S-OH,4S-Me)]; lactam 1-C) ?
## Result 4.98

----------
assay protocol: Mouse pharmacokinetics, i.p. injection
test parameters: in vivo, ip, female ICR (CD-1) mice, single 4 mg/kg i.p., plasma, LC-MS/MS, noncompartmental from mean profile, n = 3/time point
Starred links: 1 amine or outer side, 2 acyl side, 3 side chain; linkers in the order of their positions; H or OH if unused. Positions of bridges follow the written chain, without caps; N, C: chain ends. Non-standard residues stand in square brackets, D forms with d. Residues, ends and D or L forms follow the SMILES beside them. *: point of attachment. Orn(4R-OH,5R-OCH2CH2NMe3+) = C[N+](C)(C)CCO[C@@H](N[*:3])[C@H](O)C[C@H](N[*:1])C(=O)[*:2]; pTerphenylCO(4''-OnC5H11) = CCCCCOc1ccc(-c2ccc(-c3ccc(C(=O)*)cc3)cc2)cc1; hTyr(3S-OH,4S-OH) = N[C@H](C(=O)O)[C@H](O)[C@@H](O)c1ccc(O)cc1; Pro(3S-OH,4S-Me) = C[C@H]1CN[C@H](C(=O)O)[C@H]1O; Hyp = O=C(O)[C@@H]1C[C@@H](O)CN1
measured endpoint: AUC(0-inf) (µg·h/mL)
Answer with a number only, understood to be in µg·h/mL.

## Task Value lookup for AUC(0-inf); key = CCCCCOc1ccc(-c2ccc(-c3ccc(C(=O)N[C@H]4C[C@@H](O)[C@@H](OCC[N+](C)(C)C)NC(=O)[C@@H]5[C@@H](O)[C@@H](C)CN5C(=O)[C@H]([C@@H](C)O)NC(=O)[C@H]([C@H](O)[C@@H](O)c5ccc(O)cc5)NC(=O)[C@@H]5C[C@@H](O)CN5C(=O)[C@H]([C@@H](C)O)NC4=O)cc3)cc2)cc1 [CD101] ({pTerphenylCO(4''-OnC5H11)}-[Orn(4R-OH,5R-OCH2CH2NMe3+)]T[Hyp][hTyr(3S-OH,4S-OH)]T[Pro(3S-OH,4S-Me)]; lactam 1-C)
## Result 313
